Experiment: NCI Yeast Anticancer Drug Screen. Data for the rad18 strain (AID 177)
Conditions: S. cerevisiae rad18 mutant growth inhibition; at 100.0 µM
This is part of a sample that, as a whole, favours compounds with a hit. Of some 79,000 tested, about 15% had one in any assay. Calls of active or inactive are those of the source. No stated cut-off is given here; in the data, active means growth inhibition above about 70%; inactive means the rest.
Labels: y for active, n for inactive

[[record]]
compound = "CCC(C)(C)c1ccc(Oc2cccc(C(=O)O)c2)cc1"
class_name = "n"

[[record]]
compound = "COc1cc(O)c2c(c1O)C(=O)c1cc(C)ncc1C2=O"
class_name = "n"

[[record]]
compound = "COc1ccc(C(NCCNC(c2ccc(OC)c(OC)c2)c2cc3c(cc2O)OCO3)c2cc3c(cc2O)OCO3)cc1OC (stereo unspecified)"
class_name = "y"

[[record]]
compound = "OC(CCNCc1ccccc1)c1ccc2ccccc2c1 (stereo unspecified)"
class_name = "y"

[[record]]
compound = "S=C1SCN(C2CCCCC2)CN1C1CCCCC1"
class_name = "n"

[[record]]
compound = "Cc1cc(S(=O)(=O)Nc2nnc3cnc4ccccc4n23)c(S)cc1Cl"
class_name = "n"

[[record]]
compound = "O=C(O)Cc1cc(F)ccc1C(=O)O"
class_name = "n"

[[record]]
compound = "CCOc1ccccc1N=Cc1c2ccccc2cc2ccccc12"
class_name = "y"

[[record]]
compound = "O=C1/C(=C/c2ccccc2)CCCC1CN1CCCCC1 (stereo unspecified)"
class_name = "y"

[[record]]
compound = "Cc1ccc([N+]2=NC(c3ccccc3)=NN(c3ccccc3)C2)cc1"
class_name = "y"

[[record]]
compound = "Cn1c(=O)c2c(nc(N)n2C2OC(CO)C(O)C2O)n(C)c1=O (stereo unspecified)"
class_name = "n"


###

Experiment: NCI Yeast Anticancer Drug Screen. Data for the wt1 strain (AID 149);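 further: 0% = growth of vehicle-treated wt1 cultures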
Conditions: S. cerevisiae wt1 strain (SPY 50644) growth inhibition; at 1.2 µM; hits give high values
About 79,000 compounds went through this panel and 15% of them were active in at least one assay; those are over-represented in the sample as a whole.
MEASURED PROPERTY: growth inhibition (%)

[[record]]
compound = "O=C(NNc1ccccc1)C(O)C(O)C(O)C(O)C(O)CO (configuration not stated)"
meas_value = 4

[[record]]
compound = "Cc1cc(C(C)(C)CC(C)(C)C)ccc1O"
meas_value = -1

[[record]]
compound = "OC1(c2ccccc2)CCCc2ccc(Cl)cc21 (configuration not stated)"
meas_value = -1

[[record]]
compound = "O=c1ccc(=O)n(-c2ccccc2)[nH]1"
meas_value = -16

[[record]]
compound = "CCCCNC1CCC2(SCCS2)c2[nH]c3ccccc3c21 (configuration not stated)"
meas_value = 1

[[record]]
compound = "COc1cc(CSc2ccc(O)cc2)cc(O)c1O"
meas_value = 0

[[record]]
compound = "CCOC1Oc2ccccc2-c2nc(N)ncc21 (configuration not stated)"
meas_value = -4

[[record]]
compound = "CC[n+]1oc(C(=O)c2ccc(Cl)cc2)c(-c2ccccc2)c1-c1ccccc1.[Cl][Fe]([Cl])([Cl])[Cl]"
meas_value = 1

[[record]]
compound = "O=C(O)c1ccccc1/C=N/N=C1c2ccccc2-c2ccccc21"
meas_value = -1

[[record]]
compound = "CCC1(OC(=O)CN2CCN(CCO)CC2)C(=O)OCc2c1cc1n(c2=O)Cc2cc3ccccc3nc2-1 (configuration not stated)"
meas_value = 9

[[record]]
compound = "O=C1NC(=O)c2ccc([N+](=O)[O-])c3cccc1c23"
meas_value = -12

[[record]]
compound = "CCCCCCN(CCCCCC)CC(O)c1ccnc2ccc(OC)cc12 (configuration not stated)"
meas_value = -1

[[record]]
compound = "O=C1Nc2ccc(Br)cc2C1=Nc1ccc2c(c1)OCO2"
meas_value = -12

[[record]]
compound = "COC1=C(N)C(=O)c2nc(-c3nc(C(=O)O)c(C)c(-c4ccc(OC)c(OC)c4O)c3N)ccc2C1=O"
meas_value = 98

[[record]]
compound = "COc1cc(C2c3cc4c(cc3OC(OC(C)=O)C2C)OCO4)cc(OC)c1OC (configuration not stated)"
meas_value = -2

[[record]]
compound = "CC1=CC(=C(c2ccc(N)cc2)c2ccc(N)cc2)C=CC1=N"
meas_value = 0

[[record]]
compound = "CCCC(=O)Oc1c(C)cc([N+](=O)[O-])cc1[N+](=O)[O-]"
meas_value = 1

[[record]]
compound = "c1ccc2c(c1)sc1c3cnccc3ccc21"
meas_value = -1

[[record]]
compound = "COC(=O)/C=C(/CC(=O)OC)C(=O)OC"
meas_value = -2

[[record]]
compound = "Cc1ccc(Sc2ccccc2N)cc1"
meas_value = 16

[[record]]
compound = "CCCC(=O)Oc1ccc(/C=N/NC(N)=S)nc1"
meas_value = 1

[[record]]
compound = "COc1cc2ccnc(-c3c4ccccc4c(N)c4c(OC)c(OC)ccc34)c2cc1OC"
meas_value = -4

[[record]]
compound = "O=C(Oc1ccc2c(c1)CN(Cc1ccccc1)CO2)c1ccccc1"
meas_value = 2

[[record]]
compound = "Cc1nc(-c2cc3cc([N+](=O)[O-])ccc3oc2=O)cs1"
meas_value = -5

[[record]]
compound = "COc1nc2c(c(=O)n1C)N=C(c1ccccc1)[C@H](C(CC(=O)c1ccccc1)c1ccccc1)C(c1ccccc1)N2 (some centres not stated)"
meas_value = -27

[[record]]
compound = "N/C(=N/N=C/c1cc(Br)cc(Br)c1O)NO"
meas_value = -94

[[record]]
compound = "Oc1[nH]c2ccccc2c1N=NC(=S)N1CCCCC1"
meas_value = -1

[[record]]
compound = "CCOC(=O)c1[nH]n(-c2ccccc2)c(=O)c1C=NC(=S)C(N)=S"
meas_value = 19

[[record]]
compound = "O=C1c2ccccc2C(=O)c2cc(CCl)ccc21"
meas_value = 1

[[record]]
compound = "CCCCOCn1c(=O)[nH]c(=O)c2cc(Br)ccc21"
meas_value = -37

[[record]]
compound = "O=C(C[n+]1ccc2ccccc2c1)c1ccc2ccccc2c1"
meas_value = -6

[[record]]
compound = "CCCCCCCCCCCCNC(C)=O"
meas_value = -6

[[record]]
compound = "CSc1nnc(SC)nn1"
meas_value = -4

[[record]]
compound = "COC(=O)CCC(NC(=S)N/N=C(\\C)c1ccccn1)C(=O)OC (configuration not stated)"
meas_value = -10

[[record]]
compound = "COc1ccc([N+](=O)[O-])c2c(NCCCN(C)C)c3ccccc3nc12"
meas_value = 1

[[record]]
compound = "O=C(Nc1ccc(Cl)cc1)Nc1nnc2nc(C(C(=O)c3cccc([N+](=O)[O-])c3Cl)c3nc4nnc(NC(=O)Nc5ccc(Cl)cc5)n4[nH]c3=O)c(=O)[nH]n12"
meas_value = 1

[[record]]
compound = "CCOC(=O)c1ccc(NC(=O)O/N=C(/Cl)C(C)C)cc1"
meas_value = -1

[[record]]
compound = "CN(CCN(C)Cc1ccccc1)Cc1ccccc1"
meas_value = -16

[[record]]
compound = "Cc1c(C(C)C)cc(OCCO)cc1C(C)C"
meas_value = -2

[[record]]
compound = "O=C(COC(=O)c1ccccc1)c1ccc(Br)cc1"
meas_value = 2

[[record]]
compound = "CCOC(=O)[C@H]1Nc2ccc(OC)cc2C2c3ccccc3CC21 (some centres not stated)"
meas_value = -29

[[record]]
compound = "Nc1ncc(-c2ccc(Br)cc2)s1"
meas_value = 9

[[record]]
compound = "CCc1ccc2c(c1)N(CC(C)CN(C)C)c1ccccc1S2 (configuration not stated)"
meas_value = -2

[[record]]
compound = "O=C1c2ccccc2C(=O)N1CCCC(=O)n1cc(F)c(=O)[nH]c1=O"
meas_value = -51

[[record]]
compound = "Cc1ccc(Cl)cc1NC(=O)OCCN(C)C(=O)Nc1cc(Cl)ccc1C"
meas_value = -30

[[record]]
compound = "CCn1c(O)c(C=Nc2ccccc2)s/c1=N/Nc1nc(-c2ccccc2)cs1"
meas_value = -87

[[record]]
compound = "Cc1ccccc1N=C(NO)c1ccccc1"
meas_value = 0


###

The entries below come with measured growth inhibition values attached.
Assay: NCI Yeast Anticancer Drug Screen. Data for the rad50EPP+ strain (AID 151);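 further: 0% = growth of vehicle-treated control cultures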
Details: S. cerevisiae rad50 mutant strain, at 3.7 µM, hits give high values
About 79,000 compounds went through this panel and 15% of them were active in at least one assay; those are over-represented in the sample as a whole.
MEASURED PROPERTY: growth inhibition (%)

[[record]]
molecule = "CCn1c(O)c(C=Nc2ccccc2)s/c1=N/Nc1nc(-c2ccccc2)cs1"
measured_property = "growth inhibition"
meas_value = 19

[[record]]
molecule = "CCOC(=O)C1=C(C)NC(C)=C(C(=O)OCCNC(=O)c2ccc(N=[N+]=[N-])cc2)C1c1ccccc1C(F)(F)F (stereo unspecified)"
measured_property = "growth inhibition"
meas_value = 0

[[record]]
molecule = "OCc1ccccc1Cc1ccccc1"
measured_property = "growth inhibition"
meas_value = 2

[[record]]
molecule = "O=[N+]([O-])c1ccc(N/N=C/Cc2ccccc2)c([N+](=O)[O-])c1"
measured_property = "growth inhibition"
meas_value = 10

[[record]]
molecule = "CCOC(=O)C#Cc1ccc([N+](=O)[O-])cc1"
measured_property = "growth inhibition"
meas_value = 4

[[record]]
molecule = "CCOC(=O)C1N=[N+](c2ccccc2)C(=O)/C1=C\\n1c(=S)[nH]c2ccc([N+](=O)[O-])cc21 (stereo unspecified)"
measured_property = "growth inhibition"
meas_value = 1

